Here, each record is paired with measured Ki data.
molecular target: 5-hydroxytryptamine receptor 1B (Homo sapiens); assay: Binding affinity towards cloned human 5-hydroxytryptamine 1D receptor was determined using […] as radioligand

>  <molecule>
CCCCCCCCCCc1ccc2[nH]c3c(c2c1)CC(N)CC3 (configuration not stated)

>  <Ki>
> 1000 nM

$$$$

Summary for this molecule, CCCCCCCCCOc1ccc2[nH]c3c(c2c1)CCN(C)C3 : Ki is > 1000 nM

###

biological target: 5-hydroxytryptamine receptor 1B (Homo sapiens, UniProt P28222)
Sequence (P28222 whole entry): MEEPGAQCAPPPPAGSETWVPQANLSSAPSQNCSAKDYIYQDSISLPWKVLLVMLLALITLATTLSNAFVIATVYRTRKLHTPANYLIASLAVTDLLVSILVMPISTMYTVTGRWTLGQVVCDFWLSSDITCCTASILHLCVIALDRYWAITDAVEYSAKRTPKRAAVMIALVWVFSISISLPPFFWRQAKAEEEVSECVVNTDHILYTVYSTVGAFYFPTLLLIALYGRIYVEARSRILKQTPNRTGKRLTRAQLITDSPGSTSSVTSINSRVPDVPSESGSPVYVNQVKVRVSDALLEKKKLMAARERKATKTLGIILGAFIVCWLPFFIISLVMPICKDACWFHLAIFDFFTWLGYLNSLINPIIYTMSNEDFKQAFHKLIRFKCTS
Here, each record is paired with measured Ki data.
Give just the number in µM; leave the unit off.

>  <compound>
CCCCCCCCCOc1ccc2[nH]c3c(c2c1)CC(N)CC3 (centres undefined)

>  <uom>
µM

>  <Ki>
0.172

$$$$
>  <compound>
NC(=O)c1ccc2[nH]c3c(c2c1)CC(N)CC3 (centres undefined)

>  <uom>
µM

>  <Ki>
0.01

$$$$

Now consider a different compound.
I looked up CCCCCCOc1ccc2[nH]c3c(c2c1)CC(N)CC3 (centres undefined) and its Ki for 5-hydroxytryptamine receptor 1B (Homo sapiens, UniProt P28222) was 0.188
